# Tested on: Streptococcus pneumoniae
# METHOD DESCRIPTION: Potency index, ratio of azithromycin MIC to test compound MIC for erythromycin-resistant Streptococcus pneumoniae AB11 expressing ermB/mefA genes
# Format: functional
ASSAY READOUT: Ratio
The answer should be a number; do not append a unit.

>  <SMILES CODE>
CCCCCCNC(=O)O[C@@H]1[C@@H](C)N(C)C[C@H](C)C[C@@](C)(O)[C@H](O[C@@H]2O[C@H](C)C[C@H](N(C)C)[C@H]2O)[C@@H](C)[C@H](OC(=O)Nc2ccc(OC)cc2)[C@@H](C)C(=O)O[C@H](CC)[C@@]1(C)O

>  <VALUE OBSERVED>
256

$$$$

# context switch: different compound, same Ratio
Query: Sample "CC[C@H]1OC(=O)[C@H](C)[C@@H](OC(=O)Nc2ccccc2C)[C@H](C)[C@@H](O[C@@H]2O[C@H](C)C[C@H](N(C)C)[C@H]2O)[C@](C)(O)C[C@@H](C)CN(C)[C@H](C)[C@H]2OC(=O)O[C@@]21C" — what was its Ratio?
Reply: 256

Where these numbers come from: ChEMBL document CHEMBL3994579
